Tested on: hot plate stimulus
Test: Mouse hot plate test
Assay type: in vivo
Details: dose 40 mg/kg, time 30 min.
Non-standard residues stand in square brackets, D forms with d. Residues, ends and D or L forms follow the SMILES beside them. dNle = CCCC[C@@H](N)C(=O)O
Listed next: entries and their corresponding % of animals showing a 50% increase.
Answer with the figure and its unit, nothing else.

Below are worked cases with known answers.
CCCC[C@@H](NC(=O)[C@@H](N)Cc1ccc(O)cc1)C(=O)N[C@@H](Cc1ccccc1)C(=O)N[C@@H](CCCCN)C(N)=O [BCH-2205, H-Tyr-D-Nle-Phe-Lys-NH2] (H-Y[dNle]FK-NH2): 60%
NCCCC[C@H](NC(=O)[C@H](Cc1ccccc1)NC(=O)[C@@H](CO)NC(=O)[C@@H](N)Cc1ccc(O)cc1)C(N)=O [BCH-2209, H-Tyr-D-Ser-Phe-Lys-NH2] (H-Y[dS]FK-NH2): 40%

Query compound follows.
For CC(C)C[C@@H](NC(=O)[C@@H](N)Cc1ccc(O)cc1)C(=O)N[C@@H](Cc1ccccc1)C(=O)N[C@@H](CCCCN)C(N)=O [BCH-2207, H-Tyr-D-Leu-Phe-Lys-NH2] (H-Y[dL]FK-NH2) the compound record lists % of animals showing a 50% increase as 20%

====

Target: μ-opioid receptor (Rattus norvegicus)
Construct: displacement of the radioligands from the rat brain membrane preparations; from tissue; host or cells: rat brain membrane preparations
Sequence (P33535 whole entry): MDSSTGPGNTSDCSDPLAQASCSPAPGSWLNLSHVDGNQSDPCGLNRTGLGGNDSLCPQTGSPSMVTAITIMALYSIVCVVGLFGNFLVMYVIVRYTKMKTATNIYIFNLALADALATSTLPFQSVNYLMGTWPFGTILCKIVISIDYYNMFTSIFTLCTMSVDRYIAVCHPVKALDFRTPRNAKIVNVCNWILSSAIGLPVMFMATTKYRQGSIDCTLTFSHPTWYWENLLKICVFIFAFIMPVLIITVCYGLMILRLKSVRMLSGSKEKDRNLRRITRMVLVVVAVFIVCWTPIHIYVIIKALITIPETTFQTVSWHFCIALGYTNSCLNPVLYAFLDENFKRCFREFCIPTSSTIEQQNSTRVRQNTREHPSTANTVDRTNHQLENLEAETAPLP
Test: biochemical
Type: binding
Settings: read-out: [3H]DAGO Ki^μ
Non-standard residues stand in square brackets, D forms with d. Residues, ends and D or L forms follow the SMILES beside them. dNle = CCCC[C@@H](N)C(=O)O; dNva = CCC[C@@H](N)C(=O)O; Orn = NCCC[C@H](N)C(=O)O
compounds and their reported pKi
# pKi = -log10(concentration in molar units)

These recorded examples may help you get a feel for the data.
CCC[C@@H](NC(=O)[C@@H](N)Cc1ccc(O)cc1)C(=O)N[C@@H](Cc1ccccc1)C(=O)N[C@@H](CCCN)C(N)=O [BCH-752, H-Tyr-D-Nva-Phe-Orn-NH2] (H-Y[dNva]F[Orn]-NH2): 8.93
N=C(N)NCCC[C@@H](NC(=O)[C@@H](N)Cc1ccc(O)cc1)C(=O)N[C@@H](Cc1ccccc1)C(=O)N[C@@H](CCCN)C(N)=O [BCH-1765, H-Tyr-D-Arg-Phe-Orn-NH2]: 8.92

Consider now this further compound.
Lookup result for CCCC[C@@H](NC(=O)[C@@H](N)Cc1ccc(O)cc1)C(=O)N[C@@H](Cc1ccccc1)C(=O)N[C@@H](CCCN)C(N)=O [BCH-1763, H-Tyr-D-Nle-Phe-Orn-NH2] (H-Y[dNle]F[Orn]-NH2) ; measured pKi: 8.87

====

Target: δ-opioid receptor (Rattus norvegicus, UniProt P33533)
Construct: displacement of the radioligands from the rat brain membrane preparations; from tissue; host or cells: rat brain membrane preparations
Sequence (P33533 whole entry): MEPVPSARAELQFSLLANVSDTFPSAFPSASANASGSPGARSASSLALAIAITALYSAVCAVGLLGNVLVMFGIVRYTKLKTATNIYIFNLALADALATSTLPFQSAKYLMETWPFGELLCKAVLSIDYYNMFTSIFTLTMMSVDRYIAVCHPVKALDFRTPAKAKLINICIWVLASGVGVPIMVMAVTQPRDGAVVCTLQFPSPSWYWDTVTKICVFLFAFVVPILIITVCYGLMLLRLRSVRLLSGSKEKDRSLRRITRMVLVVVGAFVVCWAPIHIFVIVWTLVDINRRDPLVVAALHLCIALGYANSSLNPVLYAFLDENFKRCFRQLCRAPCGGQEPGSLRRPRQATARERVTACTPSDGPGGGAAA
Assay: biochemical
Format: binding
Non-standard residues stand in square brackets, D forms with d. Residues, ends and D or L forms follow the SMILES beside them. Orn = NCCC[C@H](N)C(=O)O; Dab = NCC[C@H](N)C(=O)O
The following compounds are listed with their measured pKi values.
Please treat pKi as minus the base-10 logarithm of the molar concentration.

Consider the worked cases shown below.
CC(C)C[C@@H](NC(=O)[C@@H](N)Cc1ccc(O)cc1)C(=O)N[C@@H](Cc1ccccc1)C(=O)N[C@@H](CCCN)C(N)=O [BCH-2459, H-Tyr-D-Leu-Phe-Orn-NH2] (H-Y[dL]F[Orn]-NH2): 4.73
NCCC[C@H](NC(=O)[C@H](Cc1ccccc1)NC(=O)[C@@H](CO)NC(=O)[C@@H](N)Cc1ccc(O)cc1)C(N)=O [BCH-2461, H-Tyr-D-Ser-Phe-Orn-NH2] (H-Y[dS]F[Orn]-NH2): 4.80
CC[C@@H](C)[C@@H](NC(=O)[C@@H](N)Cc1ccc(O)cc1)C(=O)N[C@@H](Cc1ccccc1)C(=O)N[C@@H](CCN)C(N)=O [BCH-2468, H-Tyr-D-Ile-Phe-A2 bu-NH2] (H-Y[dI]F[Dab]-NH2): 5.60

Let's switch to this compound now.
Considering CC(C)[C@@H](NC(=O)[C@@H](N)Cc1ccc(O)cc1)C(=O)N[C@@H](Cc1ccccc1)C(=O)N[C@@H](CCN)C(N)=O [BCH-2467, H-Tyr-D-Val-Phe-A2 bu-NH2] (H-Y[dV]F[Dab]-NH2) , its pKi with δ-opioid receptor (Rattus norvegicus, UniProt P33533) was recorded as 5.20
